target: human CB1 on stably transfected CB1 CHO cells (human, UniProt P21554 1-472); assay: cell-based or functional assay
Sequence (P21554 whole entry): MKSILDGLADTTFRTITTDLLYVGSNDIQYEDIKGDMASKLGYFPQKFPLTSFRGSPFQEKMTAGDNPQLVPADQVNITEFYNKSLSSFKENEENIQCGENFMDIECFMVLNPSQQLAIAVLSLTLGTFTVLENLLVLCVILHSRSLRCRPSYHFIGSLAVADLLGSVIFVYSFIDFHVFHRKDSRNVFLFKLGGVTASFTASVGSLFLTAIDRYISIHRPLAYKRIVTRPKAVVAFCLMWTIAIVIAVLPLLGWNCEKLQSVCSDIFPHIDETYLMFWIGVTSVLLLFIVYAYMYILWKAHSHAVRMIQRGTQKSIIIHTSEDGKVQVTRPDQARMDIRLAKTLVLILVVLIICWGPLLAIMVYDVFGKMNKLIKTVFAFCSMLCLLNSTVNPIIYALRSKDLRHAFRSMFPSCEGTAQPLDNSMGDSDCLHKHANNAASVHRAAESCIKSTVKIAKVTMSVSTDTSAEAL
Quick reference for IC50 (nM, n = 4), antagonist activity, TR-FRET cAMP assay among some binders
property-measured: IC50 (nM, n = 4), antagonist activity, TR-FRET cAMP assay (nM)

| binder | value-units | observed-value |
| --- | --- | --- |
| LIBC673952-1 (IgG1 SEFL2 mAb) (antibody, V domains shown) VH: QVQLQESGPGLVKPSQTLSLTCTVSGGSIRRGGDYWSWIRQHPGKGLEWIGHVYYTGQTTYNPSFRGRVTISVNTYKNQFSLKLSSVTAADTAVYYCARDYDILTGYSYYYYGLDVWGQGTTVTVSS VL: DIVMTQSPLSLPVTPGEPASISCRSSQSLLHRSGYNYLDWYLQKPGQSPQLLIYQGSNRASGVPDRFSGSGSGTDFTLKISRVEAEDVGVYYCRQARALPRTFGQGTKVEIKR | nM | 2.48 |
| LIBC680773-1 (IgG1 SEFL2 mAb) (antibody, V domains shown) VH: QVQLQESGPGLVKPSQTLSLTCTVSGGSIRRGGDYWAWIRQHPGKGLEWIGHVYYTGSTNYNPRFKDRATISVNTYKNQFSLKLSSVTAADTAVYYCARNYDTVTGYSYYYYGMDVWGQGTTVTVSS VL: DIQMTQSPSSLSASVGDRVTITCRASQSISSYLNWYQQKPGKAPKLLIYKARLLSSGVPSRFSGSGSGTDFTLTISSLQPEDFATYYCQQYSRLPLTFGGGTKVEIKR | nM | 0.74 |
| LIBC680812-1 (IgG1 SEFL2 mAb) (antibody, V domains shown) VH: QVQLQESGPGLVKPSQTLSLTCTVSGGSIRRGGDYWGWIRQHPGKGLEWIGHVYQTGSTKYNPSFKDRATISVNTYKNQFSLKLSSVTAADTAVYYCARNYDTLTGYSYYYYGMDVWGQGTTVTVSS VL: DIQMTQSPSSLSASVGDRVTITCRASQSISSYLNWYQQKPGKAPKLLIYSARRLSSGVPSRFSGSGSGTDFTLTISSLQPEDFATYYCQQYRSYPITFGGGTKVEIKR | nM | 0.68 |
| LIBC680800-1 (IgG1 SEFL2 mAb) (antibody, V domains shown) VH: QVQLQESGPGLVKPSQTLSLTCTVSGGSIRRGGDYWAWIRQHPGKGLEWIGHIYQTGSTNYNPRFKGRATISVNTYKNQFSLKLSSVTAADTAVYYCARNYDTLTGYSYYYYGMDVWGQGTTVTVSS VL: DIQMTQSPSSLSASVGDRVTITCRASQSISSYLNWYQQKPGKAPKLLIYSARALSSGVPSRFSGSGSGTDFTLTISSLQPEDFATYYCQQYRKFPLTFGGGTKVEIKR | nM | 1.57 |
